Where do the numbers come from? From paper PMC5540273.

# Test system: PIM3
# SETUP CONDITIONS: concentration: 1 μM, replicates: in singlicate; n = 1;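 further: KINOMEscan kinase panel screen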
Here the recorded %Inh is given for each entry.
Numbers only here, please. The scale is %.

Recorded %Inh, per entry:
Oc1cc(Nc2ccnc3cc(I)ccc23)ccc1F: 0
O=C(Nc1ccccc1F)NC1CCN(c2ccnc(Nc3ccc(F)cc3)n2)CC1: 0
COc1cccc(C2=C(Nc3ccc(Cl)c(C(=O)O)c3)C(=O)NC2=O)c1: 0

Query string: Quick one: %Inh of CC(=O)N1CCN(c2ccc(Nc3nccc(-c4sc(C(C)C)nc4-c4cccc(NS(=O)(=O)c5cccc(Cl)c5)c4)n3)cn2)CC1 ?
Result string: 89

Query string: Quick one: %Inh of Cc1occc1-c1ncc(OC[C@@H](N)Cc2c[nH]c3ccccc23)cc1-c1ccc2[nH]nc(C)c2c1.O=C(O)C(F)(F)F ?
Result string: 64

Query string: Quick one: %Inh of CC(C)c1nc(-c2cccc(NS(=O)(=O)c3c(F)cccc3F)c2F)c(-c2ccnc(Nc3ccc(N4CCOCC4)nc3)n2)s1 ?
Result string: 0

###

# System: ACVR2A
# SETUP CONDITIONS: concentration: 1 μM, replicates: in singlicate; n = 1
ASSAY ENDPOINT: %Inh
Just the number plus its unit, please.

COc1cc(Nc2nccc(-c3c(-c4cccc(NC(=O)c5c(F)cccc5F)c4)nn4ccccc34)n2)cc(OC)c1OC: 7%

Query string: Quick one: %Inh of CCS(=O)(=O)c1ccc(OC)c(Nc2nccc(-c3c(-c4cccc(NC(=O)c5c(F)cccc5F)c4)nn4ncccc34)n2)c1 ?
Result string: 0%

Query string: Quick one: %Inh of O=C(Nc1cccc(-c2nn3ccccc3c2-c2ccnc(Nc3cccc(C(F)(F)F)c3)n2)c1)c1c(F)cccc1F ?
Result string: 0%

Query string: Quick one: %Inh of CCn1c(-c2nonc2N)nc2c(C#CC(C)(C)O)nc(OC[C@H](N)c3ccccc3)cc21 ?
Result string: 0%

###

# Test system: MINK
# Construct: gene MINK1
# SETUP CONDITIONS: concentration: 1 μM, replicates: in singlicate; n = 1
ASSAY ENDPOINT: %Inh (%)
Numbers only here, please. The scale is %.

O=c1[nH]cc(-c2ccc(N3CCOCC3)cc2)c2sc(-c3cn[nH]c3)cc12: 26

Query string: Record Clc1ccc(-c2nn3ncccc3c2-c2ccnc(Nc3ccc4c(c3)OCCO4)n2)cc1 : what is its %Inh with MINK?
Result string: 23

Query string: Record CCCCc1nn2ncccc2c1-c1ccnc(Nc2ccc(N3CCN(C)CC3)cc2)n1 : what is its %Inh with MINK?
Result string: 43

Query string: Record Cl.Cl.NCC(NC(=O)c1cc(-c2ccccc2)c(-c2ccnc3[nH]ccc23)s1)c1ccccc1 (centres unmarked) : what is its %Inh with MINK?
Result string: 90.7

Query string: Record Nc1ncc(-c2cccnc2)c2scc(-c3ccc4c(c3)CCN4C(=O)Cc3ccccc3)c12 : what is its %Inh with MINK?
Result string: 41

Query string: Record O=C(Nc1cccc(-c2nn3ccccc3c2-c2ccnc(Nc3cccc(C(F)(F)F)c3)n2)c1)c1c(F)cccc1F : what is its %Inh with MINK?
Result string: 2

Query string: Record O=C(Nc1cccc(-c2nn3ccccc3c2-c2ccnc(Nc3cccc(F)c3)n2)c1)c1c(F)ccc(F)c1Cl : what is its %Inh with MINK?
Result string: 0

Query string: Record Cc1ccc(F)c(C(=O)Nc2cccc(-c3nn4ccccc4c3-c3ccnc(Nc4cccc(F)c4)n3)c2)c1F : what is its %Inh with MINK?
Result string: 17

Query string: Record COc1cc(Nc2nccc(-c3c(-c4cccc(NC(=O)c5c(F)cccc5F)c4)nn4ccccc34)n2)cc(OC)c1OC : what is its %Inh with MINK?
Result string: 8

Query string: Record CCS(=O)(=O)c1ccc(OC)c(Nc2nccc(-c3c(-c4cccc(NC(=O)c5c(F)cccc5F)c4)nn4ncccc34)n2)c1 : what is its %Inh with MINK?
Result string: 0

Query string: Record COCCOCCOc1cc2ncc3c4ccc(C#N)cc4[nH]c3c2cc1OC : what is its %Inh with MINK?
Result string: 90.9

###

# Test system: YANK2
# Construct: gene STK32B
# SETUP CONDITIONS: concentration: 1 μM, replicates: in singlicate; n = 1
ASSAY ENDPOINT: %Inh (%)
Numbers only here, please. The scale is %.

COc1cccc(NC(=O)NC2CCN(c3ccnc(Nc4cc(OC)c(OC)c(OC)c4)n3)C2)c1 (stereo not drawn) [GSK1379763]: 0

Continue with the compound presented below.
Query string: Quick one: %Inh of Oc1cc(Nc2ccnc3cc(I)ccc23)ccc1F [GW552771] ?
Result string: 22

###

# System: MKNK2
# SETUP CONDITIONS: concentration: 1 μM, replicates: in singlicate; n = 1
ASSAY ENDPOINT: %Inh (%)
Numbers only here, please. The scale is %.

Recorded %Inh, per entry:
Cc1ccc(C)c(NC(=O)NC2CCN(c3ccnc(Nc4ccc(F)cc4)n3)C2)c1 (stereo not shown) [GSK1379720]: 0
O=c1[nH]cc(-c2ccc(N3CCOCC3)cc2)c2sc(-c3cn[nH]c3)cc12 [GSK2276055]: 9
Cc1cccc(Nc2nc(N[C@H]3CCNC3)ncc2C(N)=O)c1.Cl [GSK2197149]: 51

Continue with the molecule presented below.
Query string: Quick one: %Inh of Cn1cc(-c2ccc3c(c2)CCN3C(=O)Cc2cccc(F)c2)c2c(N)ncnc21 [GSK2603358] ?
Result string: 21

###

# Tested on: RSK2(Kin.Dom.1-N-terminal)
# Construct: gene RPS6KA3
# SETUP CONDITIONS: concentration: 1 μM, replicates: in singlicate; n = 1
Here the recorded %Inh is given for each entry.

Recorded %Inh, per entry:
Clc1ccc(-c2nn3ncccc3c2-c2ccnc(Nc3ccc4c(c3)OCCO4)n2)cc1: 23%
c1ccc(-c2n[nH]cc2Nc2ccnc3ccccc23)nc1: 27%

Query string: Quick one: %Inh of CC(=O)N1CCN(c2ccc(Nc3nccc(-c4sc(C(C)C)nc4-c4cccc(NS(=O)(=O)c5cccc(Cl)c5)c4)n3)cn2)CC1 ?
Result string: 0%

Query string: Quick one: %Inh of O=C(Nc1cccc(-c2nn3ccccc3c2-c2ccnc(Nc3cccc(C(F)(F)F)c3)n2)c1)c1c(F)cccc1F ?
Result string: 3%

Query string: Quick one: %Inh of O=C(O)C(F)(F)F.O=C(O)C(F)(F)F.O=c1[nH]ccc2nc(N[C@@H]3CCCNC3)nc(Nc3ccc(S(=O)(=O)N4CCOCC4)cc3)c12 ?
Result string: 99.7%

Query string: Quick one: %Inh of COc1ccc(CNC(=O)NC2CCN(c3ccnc(Nc4ccc(F)cc4)n3)CC2)cc1 ?
Result string: 0%

Query string: Quick one: %Inh of Nc1ncc(-c2ccc3nccc(-c4ccncc4)c3c2)cc1S(=O)(=O)N1CCOCC1 ?
Result string: 0%

###

Here the recorded %Inh is given for each entry.
# Test system: HPK1
# SETUP CONDITIONS: concentration: 1 μM, replicates: in singlicate; n = 1
Numbers only here, please. The scale is %.

Recorded %Inh, per entry:
Cc1occc1-c1ncc(OC[C@@H](N)Cc2c[nH]c3ccccc23)cc1-c1ccc2[nH]nc(C)c2c1.O=C(O)C(F)(F)F [GSK682037]: 90
Cc1cccc(NC(=O)Nc2ccc(Oc3ncnc4ccn(C)c34)cc2)c1: 31
O=C(Nc1ccccc1F)NC1CCN(c2ccnc(Nc3ccc(F)cc3)n2)CC1 [GSK1379800]: 34

Continue with the compound presented below.
Query string: Quick one: %Inh of O=c1[nH]cc(-c2ccc(N3CCOCC3)cc2)c2sc(-c3cn[nH]c3)cc12 [GSK2276055] ?
Result string: 26

###

# Tested on: WEE2
# SETUP CONDITIONS: concentration: 1 μM, replicates: in singlicate; n = 1
Here the recorded %Inh is given for each entry.
Numbers only here, please. The scale is %.

c1ccc(-c2n[nH]cc2Nc2ccnc3ccccc23)nc1 [GW694077]: 0
Cc1cccc(Nc2nc(N[C@H]3CCNC3)ncc2C(N)=O)c1.Cl [GSK2197149]: 8
Oc1cc(Nc2ccnc3cc(I)ccc23)ccc1F [GW552771]: 0
CN(c1ccc(NC(=O)Nc2cc(C(F)(F)F)ccc2F)cc1)c1ccnc(Nc2ccc(S(N)(=O)=O)cc2)n1 [GW809893]: 11
O=C(Nc1n[nH]c2nc(-c3ccc(O)cc3)ccc12)C1CC1 [SB-710363]: 1

Continue with the molecule presented below.
Query string: Quick one: %Inh of COc1cc(Nc2nccc(-c3c(-c4cccc(NC(=O)c5c(F)cccc5F)c4)nn4ccccc34)n2)cc(OC)c1OC [GSK323521] ?
Result string: 6

###

# Test system: RET
# SETUP CONDITIONS: concentration: 1 μM, replicates: in singlicate; n = 1
ASSAY ENDPOINT: %Inh (%)
Numbers only here, please. The scale is %.

Recorded %Inh, per entry:
Cc1ccc(C)c(NC(=O)NC2CCN(c3ccnc(Nc4ccc(F)cc4)n3)C2)c1 (centres unmarked) [GSK1379720]: 0
CCCCc1nn2ncccc2c1-c1ccnc(Nc2ccc(N3CCN(C)CC3)cc2)n1 [GW684941]: 99.5
CSc1cccc2c(-c3ccncn3)c(-c3ccc(F)cc3)nn12 [GW514786]: 29
CC(C)c1nc(-c2cccc(NS(=O)(=O)c3c(F)cccc3F)c2F)c(-c2ccnc(Nc3ccc(N4CCOCC4)nc3)n2)s1 [GSK2008607]: 99.7
Cc1ccc(C(=O)N2CC[C@@H](O)C2)cc1-n1c(C)cc(OCc2ccc(F)cc2F)c(Br)c1=O: 10

Query string: Quick one: %Inh of CC(=O)Nc1nc2cnc(Nc3cc(NC(=O)c4cccc(C5(C#N)CC5)c4Cl)ccc3C)nc2s1 ?
Result string: 99.6

Query string: Quick one: %Inh of COc1cc(Nc2ncc3c(C)nc(-c4cc5ccccc5[nH]4)n3n2)cc(OC)c1OC [GW869516] ?
Result string: 45

Query string: Quick one: %Inh of Cl.c1ccc(-c2ccc3c(Nc4ccc5[nH]ncc5c4)ccnc3c2)nc1 [GW440137] ?
Result string: 76

Query string: Quick one: %Inh of Fc1ccc(-c2ncn(C3CCNCC3)c2-c2ccnc(Oc3ccc(-c4ccccc4)cc3)n2)cc1 [SB-245391] ?
Result string: 3

Query string: Quick one: %Inh of COc1ccc(-c2coc3ccc(-c4nnc(SCc5ccc(OC)c(C(F)(F)F)c5)o4)cc23)cc1 ?
Result string: 0

Query string: Quick one: %Inh of COc1cc(Nc2nccc(-c3c(-c4cccc(NC(=O)c5c(F)cccc5F)c4)nn4ncccc34)n2)cc(OC)c1OC [GSK327238] ?
Result string: 99.7

Query string: Quick one: %Inh of C[C@@H](Oc1cc(-n2cnc3cc(-c4ccnc(NCCS(C)(=O)=O)c4)ccc32)sc1C(N)=O)c1ccccc1Cl [GSK907232] ?
Result string: 51

Query string: Quick one: %Inh of COc1ccc(Nc2nccc(NCCNC(=O)c3cc4ccccc4s3)n2)cc1 [GSK1379896] ?
Result string: 25

Query string: Quick one: %Inh of Cl.c1ccc(-c2ccc3c(Nc4ccc5[nH]ccc5c4)ccnc3c2)nc1 [GW440138] ?
Result string: 96.9

Query string: Quick one: %Inh of Cc1ccc(C(=O)Nc2ccc(Nc3ccnc4cc(-c5nccs5)ccc34)cc2O)cc1.Cl [GW494702] ?
Result string: 59
